All values here come from patent US8575186B2.

The entries below are paired with their reported pKi.
Target: human 5-HT6 receptor (Homo sapiens (Human), UniProt P50406)
Sequence (P50406 whole entry): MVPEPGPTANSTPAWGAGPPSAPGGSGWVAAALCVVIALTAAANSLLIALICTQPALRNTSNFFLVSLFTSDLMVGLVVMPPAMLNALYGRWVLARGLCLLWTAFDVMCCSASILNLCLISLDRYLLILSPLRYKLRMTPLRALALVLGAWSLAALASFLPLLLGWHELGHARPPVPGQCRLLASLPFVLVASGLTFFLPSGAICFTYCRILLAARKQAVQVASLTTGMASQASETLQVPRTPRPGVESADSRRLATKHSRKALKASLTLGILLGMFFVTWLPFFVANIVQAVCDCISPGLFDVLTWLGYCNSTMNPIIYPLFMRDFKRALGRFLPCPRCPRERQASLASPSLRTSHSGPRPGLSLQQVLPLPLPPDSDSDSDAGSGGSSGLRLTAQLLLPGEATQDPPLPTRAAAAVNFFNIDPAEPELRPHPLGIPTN
Test: radioligand binding assay (SPA format), [N-methyl-3H]-LSD
Conditions: read-out: human 5HT6 Ki; human 5-HT6 receptor membranes, 10 nM [3H]-LSD
Where a name gives a salt, the structure may show the parent alone.
pKi is a log-scale quantity: -log10 of the concentration expressed in molar.

[[record]]
molecule = "COc1cc(S(=O)(=O)n2ccc3ccc(C#N)cc32)cc2c3c(n(C)c12)CC1CCC3N1 (stereo not shown) [Example 243]"
test_target = "human 5-HT6 receptor (Homo sapiens (Human), UniProt P50406)"
numeric_value = 9.24


Ask | # query: pKi | item CN1C2CCC1c1c(n(C)c3ccc(S(=O)(=O)c4ccsc4)cc13)C2.Cl (stereo not shown) [Example 70, hydrochloride] | system: human 5-HT6 receptor (Homo sapiens (Human), UniProt P50406)
Reply | 8.09

Ask | # query: pKi | item Cn1c2c(c3cc(S(=O)(=O)c4cccc(Cl)c4)ccc31)C1CCC(C2)N1 (stereo not shown) [Example 158] | system: human 5-HT6 receptor (Homo sapiens (Human), UniProt P50406)
Reply | 8.72

Ask | # query: pKi | item COc1cc(S(=O)(=O)c2cccc(-n3cccn3)c2)cc2c3c(n(C)c12)CC1CCC3N1 (stereo not shown) [Example 246] | system: human 5-HT6 receptor (Homo sapiens (Human), UniProt P50406)
Reply | 8.00

Ask | # query: pKi | item CN1C2CCC1c1c(n(C)c3ccc(S(=O)(=O)c4ccccc4)cc13)C2 (stereo not shown) [Example 69, hydrochloride] | system: human 5-HT6 receptor (Homo sapiens (Human), UniProt P50406)
Reply | 8.11
